experiment: Compound was evaluated for the inhibition of Leucine aminopeptidase and the inhibition constant was determined after preincubating the enzyme and inhibitor
testReadout: pKi
Just the number, please; pKi means minus log10 of the concentration in mol/L.

Item: CC(C)C[C@H](NC(=O)[C@@H](O)[C@H](N)CC(C)C)C(=O)O | pKi: 6.92

# pKi (compound: CC(C)CC(N)C(O)C(=O)NC(C(=O)NC(CC(=O)O)C(=O)O)C(C)C (configuration not stated) ) is 5.91

* * *

target: Cytosol aminopeptidase (Sus scrofa); experiment: Compound was evaluated for the inhibition of Leucine aminopeptidase and the inhibition constant was determined after preincubating the enzyme and inhibitor
testReadout: Ki (nM)
Provide the reading as a plain figure in nM.

Reported Ki ( CC(C)CCNC(=O)[C@@H](NC(=O)[C@@H](NC(=O)[C@H](O)[C@@H](N)CC(C)C)C(C)C)C(C)C ) = 890

* * *

target: Cytosol aminopeptidase (Sus scrofa); experiment: Compound was evaluated for the inhibition of Leucine aminopeptidase and the inhibition constant was determined after preincubating the enzyme and inhibitor
testReadout: pKi
By convention, pKi is the negative base-10 log of a molar concentration.

Given item CC(C)C[C@@H](N)CC(=O)N[C@H](C(=O)N[C@H](C(=O)N[C@@H](CC(=O)O)C(=O)O)C(C)C)C(C)C , the value recorded as its pKi is 3.17
